Provide the recorded IC50 for the entries that follow.
# study-target: various mutants of kinase EGFR (BaF3 cell lines stably transfected with kinase) (Homo sapiens)
# Construct: other: BaF3 cells stably transfected with EGFR Δ19Del; MTS, 48 h; other: BaF3 cell line stably transfected with EGFR Δ19Del
# Sequence (P00533 with tags, fused parts or gaps DEL746-750): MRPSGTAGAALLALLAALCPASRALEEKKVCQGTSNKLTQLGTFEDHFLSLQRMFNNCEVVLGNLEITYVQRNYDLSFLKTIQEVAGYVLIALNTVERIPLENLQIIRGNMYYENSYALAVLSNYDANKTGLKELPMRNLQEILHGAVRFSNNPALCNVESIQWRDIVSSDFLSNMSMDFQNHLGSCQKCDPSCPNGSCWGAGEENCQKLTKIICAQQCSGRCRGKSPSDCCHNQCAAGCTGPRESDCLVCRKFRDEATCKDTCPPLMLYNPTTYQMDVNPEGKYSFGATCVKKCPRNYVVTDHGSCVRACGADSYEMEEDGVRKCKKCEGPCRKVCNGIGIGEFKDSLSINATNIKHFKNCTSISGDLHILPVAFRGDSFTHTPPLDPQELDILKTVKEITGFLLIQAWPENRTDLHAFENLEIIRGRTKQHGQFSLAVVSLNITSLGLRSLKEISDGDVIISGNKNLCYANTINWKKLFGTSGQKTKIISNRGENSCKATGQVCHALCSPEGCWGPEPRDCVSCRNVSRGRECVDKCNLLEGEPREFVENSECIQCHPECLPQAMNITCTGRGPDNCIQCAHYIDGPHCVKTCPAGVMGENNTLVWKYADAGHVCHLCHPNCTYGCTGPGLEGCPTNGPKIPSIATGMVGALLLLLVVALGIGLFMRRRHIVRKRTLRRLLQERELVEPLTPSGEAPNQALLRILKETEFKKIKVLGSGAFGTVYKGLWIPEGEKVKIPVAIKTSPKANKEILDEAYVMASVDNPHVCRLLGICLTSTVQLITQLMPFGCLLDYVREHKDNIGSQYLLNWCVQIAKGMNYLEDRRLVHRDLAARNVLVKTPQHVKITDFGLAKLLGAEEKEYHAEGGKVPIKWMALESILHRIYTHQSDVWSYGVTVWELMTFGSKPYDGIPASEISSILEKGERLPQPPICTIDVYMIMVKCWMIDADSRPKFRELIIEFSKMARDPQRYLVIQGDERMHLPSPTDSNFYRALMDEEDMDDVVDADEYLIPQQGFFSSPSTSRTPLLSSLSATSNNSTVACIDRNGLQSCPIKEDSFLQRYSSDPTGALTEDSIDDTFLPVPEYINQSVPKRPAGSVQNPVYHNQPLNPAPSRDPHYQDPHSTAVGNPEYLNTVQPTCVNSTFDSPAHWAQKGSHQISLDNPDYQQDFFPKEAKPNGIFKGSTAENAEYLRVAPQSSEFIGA
# procedure-summary: Growth inhibitory activity of compounds on BaF3 cell lines stably transfected with kinase (MTS, 48 h)
# Type: cell-based
# condition-parameters: BaF3 cells stably transfected with EGFR Δ19Del, read-out: IC50, growth inhibition, Δ19Del

[in] Which IC50 is reported for this compound? CCc1cc(Nc2ncc(Br)c(Nc3ccc4nccnc4c3N(C3CC3)S(C)(=O)=O)n2)c(OC)cc1N1CCC(N(C)C)CC1
[out] ≤ 50 nM

[in] Quick one: IC50 for CCc1cc(Nc2ncc(Cl)c(Nc3ccc4nccnc4c3N(CC)S(C)(=O)=O)n2)c(OC)nc1N1CCC(N2CCN(C)CC2)CC1 ?
[out] 50 to 500 nM

[in] Query (compound): COc1cc(N2CCC(N3CCN(C)CC3)CC2)ccc1Nc1ncc(Br)c(Nc2ccc3nccnc3c2N(C)S(C)(=O)=O)n1 ; field requested: IC50
[out] ≤ 50 nM

[in] Could you share which IC50 value was measured for CCN(c1c(Nc2nc(Nc3cc(C)c(N4CCC(N5CCN(C)CC5)CC4)cc3OC)ncc2Br)ccc2nccnc12)S(C)(=O)=O ?
[out] ≤ 50 nM

[in] IC50 lookup needed for CN1CCN(Cc2cc(Nc3ncc(Br)c(Nc4ccc5nccnc5c4N(C)S(C)(=O)=O)n3)cc(C(F)(F)F)c2)CC1 , thanks.
[out] 50 to 500 nM

[in] IC50 for CCc1cc(Nc2ncc(Cl)c(Nc3ccc4nccnc4c3N(C)S(C)(=O)=O)n2)c(OC)nc1N1CCC(N2CCN(C)CC2)CC1 ?
[out] 50 to 500 nM

[in] Quick one: IC50 for CCc1cc(Nc2ncc(Cl)c(Nc3ccc4nccnc4c3N(C)S(=O)(=O)C(F)(F)F)n2)c(OC)cc1N1CCC(N(C)C)CC1 ?
[out] 500 to 2500 nM

[in] May I ask what IC50 has been recorded for CCN(c1c(Nc2nc(Nc3ccc(N4CCC(N5CCN(C)CC5)CC4)nc3OC)ncc2Br)ccc2nccnc12)S(C)(=O)=O ?
[out] 50 to 500 nM

[in] Endpoint output: IC50 of COc1cc(N2CCC(N3CCN(C)CC3)CC2)c(CC2CC2)cc1Nc1ncc(C(F)(F)F)c(Nc2ccc3nccnc3c2N(C)S(C)(=O)=O)n1 . Value?
[out] 50 to 500 nM

[in] Which IC50 value belongs to CCc1cc(Nc2ncc(Br)c(Nc3ccc4nccnc4c3N(C)S(C)(=O)=O)n2)c(OC)cc1N1CCC(N(C)C)CC1 ?
[out] ≤ 50 nM

[in] Quick check: IC50 of COc1cc(N2CCC(N3CCN(C)CC3)CC2)c(C2CC2)cc1Nc1ncc(C2CC2)c(Nc2ccc3nccnc3c2N(C)S(C)(=O)=O)n1 ?
[out] 50 to 500 nM

[in] Give the measured IC50 of CN(c1c(Nc2nc(Nc3cccc(N4CCC(O)CC4)c3)ncc2Br)ccc2nccnc12)S(C)(=O)=O .
[out] 50 to 500 nM

[in] Recorded IC50 for COc1cc(N2CCC(N3CCCC3)CC2)ccc1Nc1ncc(Br)c(Nc2ccc3nccnc3c2N(C)S(C)(=O)=O)n1 , please?
[out] ≤ 50 nM

[in] Field request: IC50 | item: CCc1cc(Nc2ncc(C)c(Nc3ccc4nccnc4c3N(C)S(C)(=O)=O)n2)c(OC)nc1N1CCC(N2CCN(C)CC2)CC1
[out] ≤ 50 nM

[in] Suppose we examine the compound COc1cc(N2CCC(N3CCN(C)CC3)CC2)c(CC2CC2)cc1Nc1ncc(Cl)c(Nc2ccc3nccnc3c2N(C)S(C)(=O)=O)n1 ; what IC50 value has been reported?
[out] 50 to 500 nM

[in] Fill in: IC50 of COc1cc(N2CCC(N3CCN(C)CC3)CC2)c(CC2CC2)cc1Nc1ncc(F)c(Nc2ccc3nccnc3c2N(C)S(=O)(=O)C2CC2)n1 is ___
[out] 50 to 500 nM

[in] Reported IC50 for COc1nc(N2CCC(N3CCN(C)CC3)CC2)ccc1Nc1ncc(Cl)c(Nc2ccc3nccnc3c2N(C)S(C)(=O)=O)n1 : what is it?
[out] 500 to 2500 nM

[in] I have this compound here, COc1cc(C(=O)N2CCC(N3CCN(C)CC3)CC2)ccc1Nc1ncc(Br)c(Nc2ccc3nccnc3c2N(C)S(C)(=O)=O)n1 , and I need its recorded IC50.
[out] 50 to 500 nM

[in] Entry COc1cc(N2CCN(C)CC2)c(C)cc1Nc1ncc(Br)c(Nc2ccc3nccnc3c2N(C)S(C)(=O)=O)n1 has what IC50?
[out] 50 to 500 nM

[in] Fill in: IC50 of CCc1cc(Nc2ncc(F)c(Nc3ccc4nccnc4c3N(C)S(C)(=O)=O)n2)c(OC)cc1N1CCN(C)CC1 is ___
[out] 50 to 500 nM

[in] Item C=Cc1cc(Nc2ncc(F)c(Nc3ccc4nccnc4c3N(C)S(C)(=O)=O)n2)c(OC(F)(F)F)cc1N1CCC(N2CCN(C)CC2)CC1 has what recorded IC50?
[out] ≤ 50 nM

[in] Entry CCc1cc(Nc2ncc(Br)c(Nc3ccc4nccnc4c3N(C)S(=O)(=O)C(C)C)n2)c(OC)cc1N1CCC(N(C)C)C1 (centres unmarked) has what IC50?
[out] 50 to 500 nM

[in] Endpoint output: IC50 of COc1cc(N2CCC(N3CCN(C)CC3)CC2)c(C)cc1Nc1ncc(F)c(Nc2ccc3nccnc3c2N(C)S(C)(=O)=O)n1 . Value?
[out] ≤ 50 nM

[in] # get_value(readout='IC50', item= COc1ccc(CN2CCN(C)CC2)cc1Nc1ncc(Br)c(Nc2ccc3nccnc3c2N(C)S(C)(=O)=O)n1 )
[out] 50 to 500 nM

[in] Given the entry COc1cc(N2CCC(N(C)C)C2)c(C)cc1Nc1ncc(C2CC2)c(Nc2ccc3nccnc3c2N(C)S(C)(=O)=O)n1 (centres unmarked) , report its measured IC50.
[out] 50 to 500 nM

[in] # IC50 lookup, item CC1CN(C)CCc2ccc(Nc3ncc(Br)c(Nc4ccc5nccnc5c4N(C)S(C)(=O)=O)n3)cc21 (centres unmarked)
[out] ≤ 50 nM
